assay: Percent decrease in triglyceride level of wistar rat was determined at 3 mg/kg dosage of the compound; assay type: ADME, organism-based; parameters: dose 3 mg/kg; conditions: in vivo
measurement.kind: Decrease (%)

A selection of reference data follows.
1. CN(CCOc1ccc(CC2SC(=O)NC2=O)cc1)c1ccccn1 (configuration not stated) : 47
2. Cc1cc2c(cc1C)N(CCOc1ccc(/C=C3/SC(=O)NC3=O)cc1)C(C)C(=O)N2 (configuration not stated) : 23.46
3. Cc1cc2c(cc1C)N(CCCOc1ccc(/C=C3/SC(=O)NC3=O)cc1)CC(=O)N2 : 30.36
4. Cc1cc2c(cc1C)N(CCOc1ccc(/C=C3/SC(=O)NC3=O)cc1)C(c1ccccc1)C(=O)N2 (configuration not stated) : 16.87

(P) Cc1cc2c(cc1C)N(CCOc1ccc(/C=C3/SC(=O)NC3=O)cc1)CC(=O)N2
(Q) Cc1cc2c(cc1C)N(CCCOc1ccc(/C=C3/SC(=O)NC3=O)cc1)C(C)C(=O)N2 (configuration not stated)
(R) Cc1cc2c(cc1C)N(CCCOc1ccc(/C=C3/SC(=O)NC3=O)cc1)C(c1ccccc1)C(=O)N2 (configuration not stated)
**Q:** Please list these compounds in decreasing order of Decrease. Returns: the labels arranged in the requested order.
**A:** P, Q, R
(P: 49.63%, Q: 21.73%, R: 10.46%)
